Attribute: MIC
Tested on: Saccharomyces cerevisiae
Experiment: Antimicrobial activity against Saccharomyces cerevisiae ATCC 7754 after 2 days by twofold serial broth dilution method
Assay type: functional
Conditions: ATCC 7754, 48 h

Molecule	Study target	Result qualifier	MIC, µg/mL
C/C=C/c1ccc(OC)cc1 [ANETHOLE]	Saccharomyces cerevisiae	=	200
CCCCCCCCCCCC(=O)O [DODECANOATE]	Saccharomyces cerevisiae	>	800
C=CCc1ccc2c(c1)OCO2 [SAFROLE]	Saccharomyces cerevisiae	=	200
CC(C)=CCC/C(C)=C/CO [GERANIOL]	Saccharomyces cerevisiae	=	400
CC1=CCC(C(C)C)=CC1 [GAMMA-TERPINENE]	Saccharomyces cerevisiae	=	50
CC1(C)CCC[C@]2(C)[C@@H](C=O)C(C=O)=CC[C@@H]12 [POLYGODIAL]	Saccharomyces cerevisiae	=	3.13
C=C1CC/C=C(/C)CC[C@@H]2[C@@H]1CC2(C)C [CARYOPHYLLENE]	Saccharomyces cerevisiae	>	800
C=C(C)[C@H]1CC=C(C)CC1 [D-LIMONENE]	Saccharomyces cerevisiae	=	50
C=CCc1ccc(OC)c(OC)c1 [METHYLEUGENOL]	Saccharomyces cerevisiae	=	800
C=CC(C)(O)CCC=C(C)C (centres undefined) [LINALOOL]	Saccharomyces cerevisiae	=	800
CC1=CC[C@@H](C(C)(C)O)CC1 [ALPHA-TERPINEOL]	Saccharomyces cerevisiae	=	800
C=CCc1ccc(O)c(OC)c1 [EUGENOL]	Saccharomyces cerevisiae	=	800
CC12CCC(CC1)C(C)(C)O2 [EUCALYPTOL]	Saccharomyces cerevisiae	>	800
CC1=CCC(O)(C(C)C)CC1 (centres undefined) [TERPINEOL]	Saccharomyces cerevisiae	=	800
